Measured Kd values are reported for all entries that follow.
- Assay System: L38R
- Experimental Details: SPR; 25C
Parameter Measured: Kd

binder="GDF11 (ligand) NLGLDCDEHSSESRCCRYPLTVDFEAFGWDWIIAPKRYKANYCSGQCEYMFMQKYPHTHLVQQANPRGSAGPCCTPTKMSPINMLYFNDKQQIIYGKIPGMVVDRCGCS" parameter_measured=Kd recorded_value="0.007 nM"
binder="BMP9 (ligand) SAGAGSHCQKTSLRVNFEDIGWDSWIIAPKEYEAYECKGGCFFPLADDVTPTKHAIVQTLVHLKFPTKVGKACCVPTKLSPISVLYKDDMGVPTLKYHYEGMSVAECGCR" parameter_measured=Kd recorded_value="0.05 nM"
binder="Activin A (ligand) GLECDGKVNICCKKQFFVSFKDIGWNDWIIAPSGYHANYCEGECPSHIAGTSGSSLSFHSTVINHYRMRGHSPFANLKSCCVPTKLRPMSMLYYDDGQNIIKKDIQNMIVEECGCS" parameter_measured=Kd recorded_value="0.23 nM"
binder="BMP10 (ligand) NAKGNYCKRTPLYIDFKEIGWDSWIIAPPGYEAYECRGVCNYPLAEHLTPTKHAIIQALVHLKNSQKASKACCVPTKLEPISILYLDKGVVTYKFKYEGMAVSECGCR" parameter_measured=Kd recorded_value="0.11 nM"
